B1: KRT18 (parent)
chain: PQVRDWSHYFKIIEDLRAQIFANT

# Variants of: B1
# PROTOCOL DETAILS: protein stability index of a GFP-peptide fusion (GPS, HEK-293T) (PSI 1-6); higher = more stable;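 also: lentivirally expressed fusions sorted by FACS into six bins by GFP to DsRed ratio, PSI derived from sequencing read proportions per bin multiplied by bin number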
# CONDITION INFO: c terminus: a fixed tail appended
This section presents variants with their documented protein stability index values.

Study these solved cases before continuing.
INPUT: Requested field: protein stability index. Item: PQVRDWSSYFKIIEDLRAQIFANT [H8S]
OUTPUT: 2.23

INPUT: Requested field: protein stability index. Item: PQVRDWSHYFYIIEDLRAQIFANT [K11Y]
OUTPUT: 1.35

INPUT: Requested field: protein stability index. Item: PQVKDWSHYFKIIEDLRAQIFANT [R4K]
OUTPUT: 2.29

INPUT: Requested field: protein stability index. Item: PQVRDYSHYFKIIEDLRAQIFANT [W6Y]
OUTPUT: 2.13

INPUT: Requested field: protein stability index. Item: PQVRDWFHYFKIIEDLRAQIFANT [S7F]
OUTPUT: 1.41

INPUT: Requested field: protein stability index. Item: PQVRDWSHYFKIPEDLRAQIFANT [I13P]
OUTPUT: 2.63

Continuing:
INPUT: Requested field: protein stability index. Item: PQIRDWSHYFKIIEDLRAQIFANT [V3I]
OUTPUT: 2.05

From: the supplement of paper PMC10567573
